- System: ΔtolC-Pore
- Type: cell-based, Escherichia coli
- measurement-parameters: strain ΔtolC Pore; NMP + antibiotic
I'd appreciate it if you could supply FICI values for the items below.
One number for each entry.

Please review the entries below; each comes with its answer.
compound	FICI
Cc1onc(-c2ccccc2)c1C(=O)N[C@@H]1C(=O)N2[C@@H]1SC(C)(C)[C@@H]2C(=O)O	0.531
CC(=O)NC[C@H]1CN(c2ccc(N3CCOCC3)c(F)c2)C(=O)O1	1.000
CC[C@H]1OC(=O)[C@H](C)[C@@H](O[C@H]2C[C@@](C)(OC)[C@@H](O)[C@H](C)O2)[C@H](C)[C@@H](O[C@@H]2O[C@H](C)C[C@H](N(C)C)[C@H]2O)[C@](C)(O)C[C@@H](C)C(=O)[C@H](C)[C@@H](O)[C@]1(C)O	0.625

Below is a list of compounds. For each, state its recorded FICI.
1. CC[n+]1c(-c2ccccc2)c2cc(N)ccc2c2ccc(N)cc21 [ethidium bromide]
2. CC(=O)O[C@H]1C[C@@]2(C)[C@@H](C[C@@H](O)[C@H]3[C@@]4(C)CC[C@@H](O)[C@@H](C)[C@@H]4CC[C@@]32C)/C1=C(\CCC=C(C)C)C(=O)O

result:
1: 0.500; 2: 0.750

====

- Tested on: EKO-35-Pore
- method-description: Checkerboard synergy (FICI), porinated strain
- Type: cell-based, Escherichia coli
- measurement-parameters: EKO-35 Pore; NMP + antibiotic
- Description: Synergy measurement using checkerboard analysis was performed in 96-well microtiter plates using the microdilution broth method, according to CLSI guidelines (Patel J. B., 2015). The cell inocula were prepared using the colony resuspension method. The minimum inhibitory concentrations (MICs) were defined as the lowest concentration that provided no growth, as determined by measurement of the OD600nm using a Synergy H1 microplate reader (BioTek). […]
Field: FICI. Provide a value for each of the compounds that follow.

compound	FICI
CC(=O)O[C@H]1C[C@@]2(C)[C@@H](C[C@@H](O)[C@H]3[C@@]4(C)CC[C@@H](O)[C@@H](C)[C@@H]4CC[C@@]32C)/C1=C(\CCC=C(C)C)C(=O)O	0.620
CC[C@H]1OC(=O)[C@H](C)[C@@H](O[C@H]2C[C@@](C)(OC)[C@@H](O)[C@H](C)O2)[C@H](C)[C@@H](O[C@@H]2O[C@H](C)C[C@H](N(C)C)[C@H]2O)[C@](C)(O)C[C@@H](C)C(=O)[C@H](C)[C@@H](O)[C@]1(C)O	0.770
CC(=O)NC[C@H]1CN(c2ccc(N3CCOCC3)c(F)c2)C(=O)O1	2.000
Cc1onc(-c2ccccc2)c1C(=O)N[C@@H]1C(=O)N2[C@@H]1SC(C)(C)[C@@H]2C(=O)O	0.750

Now look at this one.
query: Form field: FICI recorded for CC[n+]1c(-c2ccccc2)c2cc(N)ccc2c2ccc(N)cc21 [ethidium bromide] with EKO-35-Pore (enter value)
result: 0.508

====

- Tested on: E. coli EKO-35
- method-description: microbe, parasite or virus in culture
- Format: cell-based, Escherichia coli
- measurement-parameters: Table 10; without pore; technical duplicate
parameter: Minimum inhibitory concentration (MIC), EKO-35 (µg/mL)
Give bare numbers, in µg/mL.

Look up Minimum inhibitory concentration (MIC), EKO-35 for the entries below, preserving their order.
1. O=c1oc(-c2ccccc2Cl)nn1-c1ccc(C(F)(F)F)cn1
2. C=C1CCO[C@]2([C@@H](O)[C@@](C)(O)CO)NC(=O)[C@@]1(O)NC2=O
3. O=C(Nc1ccccc1C(=O)Nc1nnc(C(F)(F)F)s1)c1ccccc1Cl

result:
1: 20; 2: 200; 3: 320

Parameters: items (list). Returns: Minimum inhibitory concentration (MIC), EKO-35 for each item.
1. Cn1cc(Br)c(-c2cccc(NC(=O)Nc3ccc(OC(F)(F)F)cc3)c2)n1
2. CC(C)c1ccc(C=C(C#N)c2nc3ccccc3[nH]2)cc1

result:
320
320
